Molecular target: CDK6/CyclinD3 (Homo sapiens, UniProt Q00534)
Sequence (Q00534 whole entry): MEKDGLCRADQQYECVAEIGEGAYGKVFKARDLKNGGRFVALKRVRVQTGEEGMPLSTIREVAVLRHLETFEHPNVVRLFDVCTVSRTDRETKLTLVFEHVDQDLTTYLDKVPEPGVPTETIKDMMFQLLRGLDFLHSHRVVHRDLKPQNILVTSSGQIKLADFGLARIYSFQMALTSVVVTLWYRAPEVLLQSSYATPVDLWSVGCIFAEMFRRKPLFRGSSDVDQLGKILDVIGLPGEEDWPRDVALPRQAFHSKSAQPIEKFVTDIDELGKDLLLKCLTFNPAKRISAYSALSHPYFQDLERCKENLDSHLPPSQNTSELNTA
Sequence (P30281 whole entry partner): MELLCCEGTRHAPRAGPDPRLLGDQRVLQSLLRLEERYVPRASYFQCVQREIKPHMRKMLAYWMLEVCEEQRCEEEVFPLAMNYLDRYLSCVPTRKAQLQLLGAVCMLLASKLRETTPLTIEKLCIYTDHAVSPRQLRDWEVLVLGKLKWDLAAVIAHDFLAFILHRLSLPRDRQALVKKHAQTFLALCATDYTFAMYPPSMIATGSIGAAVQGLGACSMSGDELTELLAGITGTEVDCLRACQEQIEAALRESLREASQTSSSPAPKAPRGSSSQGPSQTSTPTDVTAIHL
Assay: CDK6/CyclinD3 kinase inhibitory activity (Caliper mobility shift)
Conditions: enzyme 15 nM, ATP 800 μM, 28° C. 30 min; read-out: CDK6/Cyclin D3 IC50
pIC50: −log10 of the molar value.
outcomeMeasure: pIC50

[[record]]
compound = "CC(C)(O)c1cnc2ccc(-c3nc(N[C@@H]4CCOC[C@H]4O)ncc3Cl)cc2c1 [Example 6]"
endpointresult = "6.00 to 7.00"

[[record]]
compound = "COc1c(C(C)(C)O)cnc2c(F)cc(-c3nc(N[C@@H]4CCOC[C@H]4O)ncc3Cl)cc12 [Example 43]"
endpointresult = "6.00 to 7.00"

[[record]]
compound = "O[C@@H]1COCC[C@H]1Nc1ncc(Cl)c(-c2cc(F)c3ncc4c(c3c2)C2CCC(C4)N2)n1 (single isomer, unassigned) [Example 20a]"
endpointresult = "≤ 6.00"

[[record]]
compound = "[2H]c1nc(N[C@@H]2CCOC[C@H]2O)nc(-c2cc(F)c3nc([2H])c4c(c3c2)CNC2(CC2)C4)c1F [Example 71]"
endpointresult = "6.00 to 7.00"

[[record]]
compound = "CC1(O)CCc2nc3c(F)cc(-c4nc(N[C@@H]5CCOC[C@H]5O)ncc4Cl)cc3cc21 (single isomer, unassigned) [Example 38b]"
endpointresult = "7.00 to 8.00"


So what does the record say about pIC50 for CC(C)(N)c1cnc2ccc(-c3nc(N[C@@H]4CCOC[C@H]4O)ncc3Cl)cc2c1 [Example 26] ?
≤ 6.00

# lookup: pIC50 of [2H]c1nc2c(F)cc(-c3nc(N[C@@H]4CCOC[C@H]4O)ncc3F)cc2c2c1CC1(CC1)NC2 [Example 70]
6.00 to 7.00

I'd like to know its pIC50. The compound in question is O[C@@H]1COCC[C@H]1Nc1ncc(Cl)c(-c2cc(F)c3ncc4c(c3c2)CNCC4)n1 [Example 9]
6.00 to 7.00

What does the record list as pIC50 for Cc1nc2c(F)cc(-c3nc(N[C@@H]4CCOC[C@H]4O)ncc3Cl)cc2c(C)c1[C@@H](C)O (single isomer, unassigned) [Example 15a] ?
7.00 to 8.00

Sample [2H]c1nc(N[C@@H]2CCOC[C@H]2O)nc(-c2cc(F)c3nc(C)c(C(C)O)c(C)c3c2)c1F (single isomer, unassigned) [Example 84a] — what was its pIC50?
7.00 to 8.00

Recorded pIC50 for Cc1nc2c(F)cc(-c3cc(N[C@@H]4CCOC[C@H]4O)ncc3F)cc2cc1C(C)(C)O [Example 78] , please?
6.00 to 7.00

Would you mind telling me what pIC50 value was observed for Cc1cc(C(C)(C)O)nc2c(F)cc(-c3nc(N[C@@H]4CCOC[C@H]4O)ncc3F)cc12 [Example 96] ?
≤ 6.00

What value of pIC50 has been recorded for this entry: CNC(C)c1cnc2c(F)cc(-c3nc(N[C@@H]4CCOC[C@H]4O)ncc3Cl)cc2c1C (single isomer, unassigned) [Example 48a]
6.00 to 7.00

What value of pIC50 has been recorded for this entry: [2H]c1nc(N[C@@H]2CCOC[C@H]2O)nc(-c2cc(F)c3nc(C)c(C(C)NC4CC4)cc3c2)c1F (single isomer, unassigned) [Example 77a]
6.00 to 7.00
